B1: CPEB3 Ribozyme (parent)
chain: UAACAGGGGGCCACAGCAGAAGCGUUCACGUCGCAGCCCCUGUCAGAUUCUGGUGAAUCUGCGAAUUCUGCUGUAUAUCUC

# Variants of: B1
# Test summary: self-cleavage, relative activity (ratio to wild type); higher = more cleavage; in vitro, sequencing
Measured self-cleavage by item
Kindly provide the number alone.

Examples from the recorded data:
# Sequence string, Quantity kind, Test value
rows = [
    ("UAACAGGGGGCCACAGCAGAAGCGUUCACGUCGCAGCCCCUGUCAGAUUCUGGUGUAUCUGCGAAUCCUGCUGUAUAUCUC [A56U U67C]", "self-cleavage", 0.26),
    ("UAACAGGGGGCCACAGCAGAAGCGUCCACGUCGCAGCCCCUGUUAGAUUCUGGUGAAUCUGCGAAUUCUGCUGUAUAUCUC [U26C C44U]", "self-cleavage", 0.26),
    ("UAACAGGGGGCCACAGCAGAAGCGUUCACGUCGCAGCCCCUGCCAGAUUCUGGUUAAUCUGCGAAUUCUGCUGUAUAUCUC [U43C G55U]", "self-cleavage", 0.52),
    ("UAACAGGGGGCCACAGCAGAAGCGUUCACGUCGCAGCCCCUGUCAGAUUCUGGUGAAUCUGCGAACUCUGCUGAAUAUCUC [U66C U74A]", "self-cleavage", 0.62),
    ("UAACAGGGGGCCACAGCAGAAGCGUUCACGUCGCAGCCCCUGUCAUAUUCUGGUGAAUCUGCGAAUUCUGCAGUAUAUCUC [G46U U72A]", "self-cleavage", 0.37),
    ("UAACAGGGGGCCAAAGCAGAAGCGUUCACGUCGCAGCCCCUGUCAGAUUCUGGUGAAUCUGCGAAUUCUGCUGAAUAUCUC [C14A U74A]", "self-cleavage", 1.25),
    ("UAACAAGGGGCCACAGCAGAAGCGUUCACGUCGCAGCCCCUGUCAGAUUCUGGUGAAUCUGCGAAUUCUGCUGUGUAUCUC [G6A A75G]", "self-cleavage", 0.27),
    ("UAACAGGGGGACACAGCAGAAGCGUUCACGUCGCAGCCCCUGUCAGAUUCUGGUGAGUCUGCGAAUUCUGCUGUAUAUCUC [C11A A57G]", "self-cleavage", 0.33),
    ("UAACAGGGGGCCACAACAGAAGCGUUCACGACGCAGCCCCUGUCAGAUUCUGGUGAAUCUGCGAAUUCUGCUGUAUAUCUC [G16A U31A]", "self-cleavage", 0.19),
    ("UAACAGGGGGCCACAGCAGAAGCGUUCACGUCGCAGCCCCUGUCAGAUUCUGGUGAAUCAGCGAAUUGUGCUGUAUAUCUC [U60A C68G]", "self-cleavage", 0.43),
]

query: Using the record for UAACAGGGGGCCACAGCGGAAGCGUUCACGUCGCAGCCCCUGUCAGAUUCUGGCGAAUCUGCGAAUUCUGCUGUAUAUCUC [A18G U54C] , state its measured self-cleavage.
result: 0.57

query: Using the record for UAACAGGAGGCCACAGCAGAAGCGUUCACGUCGCAGCCCCUGUCAGAUUCUAGUGAAUCUGCGAAUUCUGCUGUAUAUCUC [G8A G52A] , state its measured self-cleavage.
result: 0.3

query: Using the record for UAACAGGGGGCCACAGGAGAAGCGUUCACGUCGCAGCCCCUGUCAGAUUCUGGUGAAUCUGCGGAUUCUGCUGUAUAUCUC [C17G A64G] , state its measured self-cleavage.
result: 0.35

query: Using the record for UAACAGGGGGCCACAGAAGAAGCGUUCACGUCGCAGCCCCUGUCAGUUUCUGGUGAAUCUGCGAAUUCUGCUGUAUAUCUC [C17A A47U] , state its measured self-cleavage.
result: 0.44

query: Using the record for UAACAGGGGGCCACAGCAGAAGCGUUCACGUCGCAGCCCCUGUCAGAUUCUGGUGAUUCAGCGAAUUCUGCUGUAUAUCUC [A57U U60A] , state its measured self-cleavage.
result: 0.24

query: Using the record for UAACAGGGUGCCACAGCAGAAGCGUCCACGUCGCAGCCCCUGUCAGAUUCUGGUGAAUCUGCGAAUUCUGCUGUAUAUCUC [G9U U26C] , state its measured self-cleavage.
result: 0.19

query: Using the record for UAACAGGGGGCCACAGCAGAAGCGAUCACGUCGCAGCCCCAGUCAGAUUCUGGUGAAUCUGCGAAUUCUGCUGUAUAUCUC [U25A U41A] , state its measured self-cleavage.
result: 0.44

query: Using the record for UAACGGGGGGCCACAGCAGAAGCGUUCACGUCGCAGCCCCUGUCAGAUUCUGGUGAAUCUGCGAAUUCUGCUGUAUUUCUC [A5G A77U] , state its measured self-cleavage.
result: 0.78

query: Using the record for UAACAGGGGGCCACAGCAGAAGCGUUCACGUCACAGCCCCUGUCAGAUUCUGGUGAAUCUGCGAAUUGUGCUGUAUAUCUC [G33A C68G] , state its measured self-cleavage.
result: 0.11

query: Using the record for UAACAGGGGGCCACAGCAGAAGCGUUCACGUCGCAGCCCCUGUCAGAUUCUGGUGAAUCUGCGAAUUCCGCAGUAUAUCUC [U69C U72A] , state its measured self-cleavage.
result: 0.36

query: Using the record for UAACAGGGGGCCACAGCAGAAGCGUUCACGUCGCAGCCCCUGUCAGAUUCUGGAGAAUCUGCGAAUGCUGCUGUAUAUCUC [U54A U67G] , state its measured self-cleavage.
result: 0.36

query: Using the record for UAACAGGGGGCCACAGCAGAAGCGUUCACGUCGCAGCCCCUGUGAGAUUCUGGUGAAUCUGCGAAUUCUGCUGUAUACCUC [C44G U78C] , state its measured self-cleavage.
result: 0.44
